# TEST_DESCRIPTION: Cmax in rat brain at 3 mg/kg, po
# Assay type: ADME, organism-based
# Design: dose 3 mg/kg, route oral
MEASURE: Cmax (ng/g)

[A] Cc1ccc2c(OCCN3CCC(Cc4cccc(C5CCN(C)CC5)c4)CC3)cccc2n1
[B] Cc1ccc2c(OCCN3CCC(Cc4cccc(N5CCN(C)CC5)c4)CC3)cccc2n1
Q. // compare: A vs B , metric Cmax, want the smaller Lab note: record the label of whichever item you select.
A. A

* * *

# TARGET_DESC: 5-hydroxytryptamine receptor 1A (Homo sapiens, UniProt P08908)
# Sequence (P08908 whole entry): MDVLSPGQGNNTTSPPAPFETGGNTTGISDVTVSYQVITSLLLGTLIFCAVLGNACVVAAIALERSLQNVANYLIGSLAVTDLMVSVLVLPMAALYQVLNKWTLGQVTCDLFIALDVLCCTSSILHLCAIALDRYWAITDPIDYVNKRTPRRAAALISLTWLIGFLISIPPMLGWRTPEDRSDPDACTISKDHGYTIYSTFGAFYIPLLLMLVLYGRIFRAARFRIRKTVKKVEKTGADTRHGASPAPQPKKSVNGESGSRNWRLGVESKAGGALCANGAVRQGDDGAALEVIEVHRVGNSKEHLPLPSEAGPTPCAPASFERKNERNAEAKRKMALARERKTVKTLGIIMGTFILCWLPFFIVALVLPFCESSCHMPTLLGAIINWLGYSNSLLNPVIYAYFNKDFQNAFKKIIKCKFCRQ
MEASURE: Ki (nM)

Cc1ccc2c(OCCN3CCC(Cc4cccc(N5CCOCC5)c4)CC3)cccc2n1; 5.01
Cc1ccc2c(OCCN3CCC(Cc4cccc(C5CCN(C)CC5)c4)CC3)cccc2n1; 3.16
Cc1ccc2c(OCCN3CCC(Cc4cccc(N5CCCC5)c4)CC3)cccc2n1; 10
Cc1ccc2c(OCCN3CCC(Cc4cccc(-c5ccncc5)c4)CC3)cccc2n1; 7.94

[A] Cc1ccc2c(OCCN3CCC(Cc4cccc(N5CCCCC5)c4)CC3)cccc2n1
[B] Cc1ccc2c(OCCN3CCC(Cc4cccc(-c5ccccc5)c4)CC3)cccc2n1
[C] Cc1ccc2c(OCCN3CCC(Cc4cccc(C5CCN(S(C)(=O)=O)CC5)c4)CC3)cccc2n1
[D] Cc1ccc2c(OCCN3CCC(Cc4cccc(-c5ccoc5)c4)CC3)cccc2n1
[E] Cc1ccc2c(OCCN3CCC(Cc4cccc(N5C[C@@H](C)N[C@@H](C)C5)c4)CC3)cccc2n1
Q. # desc sort on Ki across 5 compounds Give your ranking as a list of the labels in the requested order.
A. B, D, C, A, E

Origin of measurements: ChEMBL document CHEMBL1154538
